Tested on: SK-MEL-2 melanoma
Experiment: NCI-60 one-dose screen, 48 h (100 = growth as untreated, 0 = no growth, -100 = all killed)
Conditions: 10 µM unless noted
Experimental: Growth inhibition of the SK-MEL-2 human tumor cell line is measured as a screen for anti-cancer activity. Cells are grown in 96 well plates and exposed to the test compound for 48 hours. Compounds are tested at a single concentration, which is 10^-5 M for most compounds. The reported endpoint is percent growth (GI% or GIPRCNT), where numbers from 0 - 100% represent growth inhibition, and numbers from -100% - 0 represent cell death. For example, a value of 40 represents 60% growth inhibition. […]
This is part of a sample that, as a whole, favours compounds with a hit. Of some 83,000 tested, about 20% had one in any assay. Calls of active or inactive are those of the source. Rule for the calls: active = growth percent below 10; inactive = the rest.
Attribute: growth
Recorded Endpoint: growth

Compound	Recorded Endpoint	Meas Value
CS(=O)(=O)c1ccc(C(=O)Nc2ccc(Cl)c(-c3ccccn3)c2)c(Cl)c1	growth	-6.37% (active)
c1cn2cc(-c3ccc4ncn(C5CCCCC5)c4c3)nc(-c3ccc4c(c3)ncn4C3CCCCC3)c2n1	growth	-65.6% (active)
C=C1C(=O)O[C@H]2[C@H]1CC/C(COC(=O)NCc1cccc(OC)c1)=C\CC[C@@]1(C)O[C@@H]21	growth	40.9% (inactive)
c1csc(-c2cnc3nonc3n2)c1	growth	105% (inactive)
COc1cc(C)c(Cl)cc1C1=NN(c2ccc(S(N)(=O)=O)cc2)C(/C=C/c2ccccc2)C1 (stereo not given)	growth	74.6% (inactive)
C=C(C)[C@@H]1CC[C@]2(C(=O)NS(=O)(=O)c3ccccc3)CC[C@]3(C)[C@H](CC[C@@H]4[C@@]5(C)CC[C@H](OC(=O)NS(=O)(=O)c6ccccc6)C(C)(C)[C@@H]5CC[C@]43C)[C@@H]12	growth	-6.1% (active)
COc1cccc(N2CCN(c3ncnc4cc[nH]c34)CC2)c1	growth	64.7% (inactive)
COc1nccc2c(Sc3ccccc3)nc(N)nc12	growth	101% (inactive)
NC(N)=N/N=C/c1cccc(Cl)c1Cl	growth	106% (inactive)
COc1cc(OC)c(Cl)cc1N	growth	116% (inactive)

---

System: SF-268 CNS
Test: NCI-60 one-dose screen, 48 h (100 = growth as untreated, 0 = no growth, -100 = all killed)
Details: 10 µM unless noted
The panel holds about 83,000 compounds, 20% with a hit somewhere; the sample as a whole holds those more often.
Attribute: growth
Recorded Endpoint: growth (%)

Compound	Recorded Endpoint	Reading Unit	Meas Value
O=C(CSc1nnc(Cc2ccccc2Nc2c(Cl)cccc2Cl)n1-c1ccccc1)N1N=C(c2ccc3ccccc3c2)CC1c1ccc(Cl)cc1 (stereo unspecified)	growth	%	89.1
CCOC(=O)N1C2CCC(C2)N1C(=O)OCC	growth	%	97
CC(=O)O[C@H]1CC[C@]2(C)[C@H]3CC=C4[C@@H]5CC(C)(C)CC[C@]5(C(=O)OCC(COC(=O)C(Cl)Cl)(COC(=O)C(Cl)Cl)NC(=O)C(Cl)Cl)CC[C@@]4(C)[C@]3(C)CC[C@H]2C1(C)C	growth	%	56.1
CC(C)c1ccc(-c2cnc3nonc3n2)cc1	growth	%	62.4
CCOC(=O)c1cc(C(=O)OCC)c(C)nc1C	growth	%	108
CN(C)CCCN1c2ccccc2CCc2ccccc21	growth	%	95.1
O=C1/C(=C/c2cc(F)cc(F)c2)Cc2cc(F)cc(F)c21	growth	%	91.4
COc1cc(C2CC(c3ccccc3)=NN2C=O)ccc1Oc1nc2c(c(=O)n(C)c(=O)n2C)n1C (stereo unspecified)	growth	%	56.3
CCCCCCCCCCCCCC1=NC(C)(C)CN1C(C)C	growth	%	-53.5
CCc1onc(-c2ccc(OC)cc2)c1-c1ccccc1OCCN(CC)CC	growth	%	85.8
CCN1C(=O)N(CC)C2C1NC(=O)N2/N=C/C=C/c1ccccc1 (stereo unspecified)	growth	%	59.7
C=C1C(=O)O[C@H]2[C@H]1CC/C(COC(=O)NCc1ccc(Cn3c(=O)sn(CCCl)c3=O)cc1)=C\CC[C@@]1(C)O[C@@H]21	growth	%	85.2
O=C(CCCCCCN1CC(=O)N2[C@@H](c3ccc(Cl)c(Cl)c3)c3[nH]c4ccccc4c3C[C@H]2C1=O)NO	growth	%	74.7
COc1ccc(NC(=O)c2sc3c(=O)[nH]c(C(F)(F)F)nc3c2C)cc1	growth	%	108
CC(=O)O[C@@H]1CC2C(C)(C)CCCC2(C)C2=C1C(=O)C(C(C)C)=CC2=O (stereo partly specified)	growth	%	27.1
CCCCCCCC/C=C/CCCCCCCC1=NC(C)(C)CN1c1ccccc1	growth	%	91.9
Cc1cc(-c2ccccc2)on1	growth	%	103
C[N+](C)(C)CCCCCCCCCC[N+](C)(C)C	growth	%	98.2
CC(C)c1cccc(C#N)c1	growth	%	107
CCC(=O)OCc1ccc(OC)cc1	growth	%	115
O=C(CCl)Nc1ccc2c(c1)C(=O)c1ccccc1C2=O	growth	%	-20.3

---

Attribute: growth
Tested on: EKVX NSCLC
Assay: NCI-60 one-dose screen, 48 h (100 = growth as untreated, 0 = no growth, -100 = all killed)
Details: 10 µM unless noted
About 83,000 compounds went through this panel and 20% of them were active in at least one assay; those are over-represented in the sample as a whole.
Recorded Endpoint: growth (%)

Molecule	Reading Unit	Meas Value
O=C(CCCN1CCC(O)(c2ccc(Br)cc2)CC1)c1ccc(F)cc1	%	91
O=C(NCCN1CCCCC1)n1cc(-c2ccncc2)c(-c2ccc(Cl)c(O)c2)n1	%	114
COc1ccc(-c2nc(SCCC(C)C)nc(Nc3ccc(C(=O)O)cc3)c2C#N)cc1	%	87.7
CC[C@H](C)[C@H](N)C(=O)O	%	107
CCCCSc1ncnc2c1ncn2C1CCCCO1 (stereo not drawn)	%	115
COc1cc2c(=O)n(CCCN(C)C)c3c4cc[nH]c4ncc3c2cc1OC	%	51.1
CCOC(=O)Cc1cc(Br)c(OCc2ccccc2)c(Br)c1	%	90.9
COc1cccc(/C=N\Nc2ccc([N+](=O)[O-])cn2)c1O	%	83.9
COc1cc(C2CC(c3ccc(C)cc3)=NN2C=O)ccc1Oc1nc2c(c(=O)n(C)c(=O)n2C)n1C (stereo not drawn)	%	80.1
Cc1ccsc1C(=O)CC(=O)C(F)(F)C(F)(F)C(F)(F)F	%	93
O=S(=O)(Cc1ccc(Cl)cc1Cl)c1ccc(Cl)cc1	%	63.4
COc1ccc2nc(C)cc(Sc3nc4ccccc4s3)c2c1	%	42.1
COc1ccc2c(c1)OC1=C(C(=O)OC1)C2c1cc(OC)c2c(c1)OCCO2 (stereo not drawn)	%	55.5
COc1ccccc1CNCCCN1C(=O)c2ccc3c4c(ccc(c24)C1=O)C(=O)N(CCCCNCCCN)C3=O	%	48.1
C=C1C(=O)O[C@H]2[C@H]1CC/C(COC(=O)NCc1[nH]nc3ccccc13)=C\CC[C@@]1(C)O[C@@H]21	%	50.1
CCC1N=C(N)N=C(N)N1c1ccc(Cl)cc1 (stereo not drawn)	%	68.4
C[C@@H]1N=C(c2ccc3ccccc3c2)Nc2nc3ccccn3c2C1=O	%	75.6
CC(C)N(C(=S)SSC(=S)N(C(C)C)C(C)C)C(C)C	%	110
O=c1nc(-c2ccccc2)c2cc(-c3ccc(N4CCOCC4)cc3)ccc2[nH]1	%	89.8
CN(C)CC(=O)c1ccc2cc(Br)c3ccccc3c2c1	%	89.7
CN1C(=O)NC(Cc2c[nH]c3c(Cl)cccc23)C1=O (stereo not drawn)	%	118
CS(=O)(=O)c1ccc(C(=O)N2N=C(c3ccccc3)CC2c2ccc3c(c2)OCO3)cc1 (stereo not drawn)	%	93.4
CCN(CC)c1cc(C)c(Cc2c(OC)ccc3ccccc23)cc1C	%	93.4
CCOC(=O)c1ccc2c(c1)[n+](=O)c(C(=O)c1ccc3ccccc3c1)c(C(F)(F)F)n2[O-]	%	-56.8
COC(=O)OC1C(O[C@H]2C[C@H]3[C@@H]4CC=C5C[C@@H](O)CC[C@]5(C)[C@H]4CC[C@]3(C)[C@H]2[C@H](C)C(=O)CCC(C)C)OCC(O)C1OC1OCC(O)C(O)C1OC(=O)c1ccc(OC)cc1 (stereo partly drawn)	%	14.3
CC(C)(c1ccccc1)c1cc(O)c(C(C)(C)c2ccccc2)cc1O	%	33
COc1ccc2nc3ccccc3c(NCc3ccc(C)cc3)c2c1	%	35.2
CNCCCn1c2c(c3ccc(Cl)cc3c1=O)C(=O)c1cc(OC)cnc1-2	%	63.8
CCOC(=O)C1=C(C)NC(=S)NC1c1ccccc1 (stereo not drawn)	%	97.6
COc1cc(NC(=O)CSc2nc3ccc(Cl)cc3c(=O)n2-c2ccccc2)cc(OC)c1OC	%	76.4
C(=Nc1ccc(-c2ccc(N=Cc3ccccc3)cc2)cc1)c1ccccc1	%	105
O=P(O)(O)C(O)(Cc1cccnc1)P(=O)(O)O	%	103
O=C(Nc1ccccc1)c1cc2ccccc2s1	%	85.5
Clc1ccc(-c2nc(-c3cccs3)no2)cc1	%	85.4
O=C(N/N=C/c1ccc([N+](=O)[O-])o1)c1ccc(O)cc1	%	71.2
CC(C)CC1NC(=O)C(CC(C)C)N(CO)C1=O (stereo not drawn)	%	115
Cc1cc(-c2ccccc2)on1	%	103
CC(C)CCSc1nc(-c2ccc(F)cc2)c(C#N)c(N2CCCCC2)n1	%	97.2
O=S1(=O)NCCN1CCNc1nccc(-c2c(-c3cccc(O)c3)nc3sccn23)n1	%	111
Cc1ccc(NC(=O)c2cc(NCc3cc(O)ccc3O)ccc2O)cc1	%	98.7
COc1ccc(-c2cnc(-c3ccncc3-c3cccc(OC)c3)o2)cc1	%	58.1
CCCCCCCCCCCCCCCC1=NCCN1	%	85.2
C=C1C(=O)O[C@H]2[C@H]1CC/C(COC(=O)NCc1cn(C)c3ccccc13)=C\CC[C@@]1(C)O[C@@H]21	%	29.6
